Listing of entries alongside the reported IC50.
test_system: UniProt:P48775
Sequence (P48775 whole entry): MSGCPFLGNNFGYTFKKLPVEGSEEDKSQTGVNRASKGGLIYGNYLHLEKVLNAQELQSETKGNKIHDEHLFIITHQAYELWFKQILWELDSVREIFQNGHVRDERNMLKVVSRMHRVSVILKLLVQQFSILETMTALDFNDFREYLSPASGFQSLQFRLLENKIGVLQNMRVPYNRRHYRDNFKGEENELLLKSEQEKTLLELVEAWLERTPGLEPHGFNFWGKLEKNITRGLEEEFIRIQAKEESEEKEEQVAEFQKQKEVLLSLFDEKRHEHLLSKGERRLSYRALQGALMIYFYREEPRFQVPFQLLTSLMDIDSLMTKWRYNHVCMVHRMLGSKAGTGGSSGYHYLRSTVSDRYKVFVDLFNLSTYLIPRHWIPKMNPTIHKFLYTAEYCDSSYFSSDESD
method_notes: hTDO biochemical coupled assay
condition_summary: 330 μM L-tryptophan, 17 minutes, room temperature; read-out: hTDO biochemical assay pIC50 (converted)

Worked examples, 4 compounds total:
>>> data_value("O=S(=O)(c1ccccc1)N1CCN(c2cccc3[nH]ncc23)CC1")
"32.4 to 100 µM"
>>> data_value("CCN1C(=O)NC2(CCN(c3cc(Cl)cc4[nH]ncc34)CC2)C1=O")
"< 3.16 µM"
>>> data_value("Clc1cc(N2CCC(c3nccs3)CC2)c2cn[nH]c2c1")
"< 3.16 µM"
>>> data_value("Cc1nc2c([nH]1)CN(c1cc(Cl)cc3[nH]ncc13)CC2")
"< 3.16 µM"

Proceed to the following item.
Input: For the compound shown here, CC(C)CC(O)c1cc(Cl)cc2[nH]ncc12 (centres unmarked) , give the reported IC50.
Output: < 3.16 µM
